Measured values drawn from paper PMC9482650 for this set.

- target.of.assay: T1, TX1BP3, O14907
- T1 sequence (O14907 10-122, limits assumed, looked up): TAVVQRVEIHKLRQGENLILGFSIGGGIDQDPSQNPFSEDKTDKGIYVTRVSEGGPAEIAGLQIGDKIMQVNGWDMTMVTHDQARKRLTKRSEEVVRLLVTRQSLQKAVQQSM
- assay.explanation: holdup assay
- Design: key: below the threshold = too weak to quantify, mostly under pKd 3.1 to 4
- details: plain residues with an end cap or a label only (N-terminal biotin on a linker: ado-ado)
Listed below: pKd values for each entry.
measured.property: pKd

ILRKSTTTTV [PRR16, Q569H4] = 3.66
PSHPRLQTHV [KIRREL2, Q6UWL6] = 4.64
ARGPPRESEV [FAM110D, Q8TAY7] = 5.24
